system.under.test: UniProtKB Q6RI86
Sequence (Q6RI86 whole entry): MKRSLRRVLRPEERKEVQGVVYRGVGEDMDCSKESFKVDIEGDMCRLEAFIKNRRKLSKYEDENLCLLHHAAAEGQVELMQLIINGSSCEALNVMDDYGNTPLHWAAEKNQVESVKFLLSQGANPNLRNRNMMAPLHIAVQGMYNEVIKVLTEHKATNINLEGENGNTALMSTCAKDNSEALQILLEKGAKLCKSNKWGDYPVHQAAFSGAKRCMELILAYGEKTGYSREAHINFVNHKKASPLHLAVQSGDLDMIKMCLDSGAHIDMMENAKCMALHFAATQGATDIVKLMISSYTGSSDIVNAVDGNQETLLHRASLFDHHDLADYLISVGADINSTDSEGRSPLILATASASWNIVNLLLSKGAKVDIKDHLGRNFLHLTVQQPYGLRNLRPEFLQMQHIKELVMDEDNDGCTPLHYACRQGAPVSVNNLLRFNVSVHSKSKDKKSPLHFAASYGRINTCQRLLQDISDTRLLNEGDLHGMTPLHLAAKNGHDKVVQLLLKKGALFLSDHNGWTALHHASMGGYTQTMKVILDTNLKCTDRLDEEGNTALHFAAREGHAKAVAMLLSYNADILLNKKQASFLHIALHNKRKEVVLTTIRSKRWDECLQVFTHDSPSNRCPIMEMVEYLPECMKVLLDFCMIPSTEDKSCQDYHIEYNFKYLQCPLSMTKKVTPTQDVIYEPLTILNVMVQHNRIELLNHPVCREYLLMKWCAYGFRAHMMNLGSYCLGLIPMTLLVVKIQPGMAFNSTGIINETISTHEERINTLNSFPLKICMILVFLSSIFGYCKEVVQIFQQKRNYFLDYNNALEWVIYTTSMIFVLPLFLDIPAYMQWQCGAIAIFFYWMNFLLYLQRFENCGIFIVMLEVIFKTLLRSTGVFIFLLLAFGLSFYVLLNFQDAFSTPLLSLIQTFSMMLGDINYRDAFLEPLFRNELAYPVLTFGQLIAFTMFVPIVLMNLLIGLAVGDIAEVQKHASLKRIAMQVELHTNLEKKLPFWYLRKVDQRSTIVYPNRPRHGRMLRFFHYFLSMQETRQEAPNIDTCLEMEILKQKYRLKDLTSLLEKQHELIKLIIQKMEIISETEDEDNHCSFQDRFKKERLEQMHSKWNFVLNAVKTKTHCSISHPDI
run.description: Antagonist activity at rat TRPA1 expressed in HEK293 cells assessed as inhibition of allylisothiocyanate-induced Ca2+ response preincubated for 5 mins followed by allylisothiocyanate addition by Fluo-4AM dye based fluorescence assay
measured.attribute: pIC50
Numbers only, as −log10 of the molar value.

// each molecule listed below needs its pIC50
1. C=C(C)[C@@H]1CCC(C)=C[C@H]1c1c(O)cc(CCCCC)c(Cc2c(CCCCC)cc(O)c([C@@H]3C=C(C)CC[C@H]3C(=C)C)c2O)c1O
2. C=C(C)[C@@H]1CCC(C)=C[C@H]1c1c(O)cc(CCCCC)cc1O

5.31
6.35

====

system.under.test: Transient receptor potential cation channel subfamily V member 2 (Rattus norvegicus)
Sequence (Q9WUD2 whole entry): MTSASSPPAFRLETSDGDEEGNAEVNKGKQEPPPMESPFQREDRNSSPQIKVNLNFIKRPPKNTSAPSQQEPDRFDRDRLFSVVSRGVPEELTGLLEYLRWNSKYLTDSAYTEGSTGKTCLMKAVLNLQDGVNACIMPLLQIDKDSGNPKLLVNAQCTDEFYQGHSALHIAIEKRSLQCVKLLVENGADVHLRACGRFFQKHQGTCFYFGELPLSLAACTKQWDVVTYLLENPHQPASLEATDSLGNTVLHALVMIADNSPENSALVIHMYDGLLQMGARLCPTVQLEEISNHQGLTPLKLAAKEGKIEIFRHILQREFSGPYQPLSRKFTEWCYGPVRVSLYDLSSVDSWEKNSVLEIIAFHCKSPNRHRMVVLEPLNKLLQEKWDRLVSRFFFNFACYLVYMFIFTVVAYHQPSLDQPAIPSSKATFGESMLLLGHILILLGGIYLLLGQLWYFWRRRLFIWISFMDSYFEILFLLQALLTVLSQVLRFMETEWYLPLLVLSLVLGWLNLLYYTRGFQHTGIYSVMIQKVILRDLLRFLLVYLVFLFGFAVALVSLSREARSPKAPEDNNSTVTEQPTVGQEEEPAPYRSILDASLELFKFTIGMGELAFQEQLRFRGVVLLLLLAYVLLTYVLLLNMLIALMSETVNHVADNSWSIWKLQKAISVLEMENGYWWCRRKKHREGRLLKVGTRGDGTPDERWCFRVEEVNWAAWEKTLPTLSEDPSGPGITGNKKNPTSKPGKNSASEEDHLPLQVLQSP
run.description: Agonist activity at rat TRPV2 stably transfected in HEK293 cells assessed as increase in calcium influx in presence of ionomycin by Fluo-4-AM dye based spectrofluorimetric method
Assay type: cell-based
recorded.conditions: read-out: EC50
measured.attribute: EC50 (nM)
Give bare numbers, in nM.

Data request, read-out EC50, for C=C(C)[C@@H]1CCC(C)=C[C@H]1c1c(O)cc(CCCCC)cc1O [CANNABIDIOL] 1200

====

system.under.test: Transient receptor potential cation channel subfamily V member 4 (Rattus norvegicus)
Sequence (Q9ERZ8 whole entry): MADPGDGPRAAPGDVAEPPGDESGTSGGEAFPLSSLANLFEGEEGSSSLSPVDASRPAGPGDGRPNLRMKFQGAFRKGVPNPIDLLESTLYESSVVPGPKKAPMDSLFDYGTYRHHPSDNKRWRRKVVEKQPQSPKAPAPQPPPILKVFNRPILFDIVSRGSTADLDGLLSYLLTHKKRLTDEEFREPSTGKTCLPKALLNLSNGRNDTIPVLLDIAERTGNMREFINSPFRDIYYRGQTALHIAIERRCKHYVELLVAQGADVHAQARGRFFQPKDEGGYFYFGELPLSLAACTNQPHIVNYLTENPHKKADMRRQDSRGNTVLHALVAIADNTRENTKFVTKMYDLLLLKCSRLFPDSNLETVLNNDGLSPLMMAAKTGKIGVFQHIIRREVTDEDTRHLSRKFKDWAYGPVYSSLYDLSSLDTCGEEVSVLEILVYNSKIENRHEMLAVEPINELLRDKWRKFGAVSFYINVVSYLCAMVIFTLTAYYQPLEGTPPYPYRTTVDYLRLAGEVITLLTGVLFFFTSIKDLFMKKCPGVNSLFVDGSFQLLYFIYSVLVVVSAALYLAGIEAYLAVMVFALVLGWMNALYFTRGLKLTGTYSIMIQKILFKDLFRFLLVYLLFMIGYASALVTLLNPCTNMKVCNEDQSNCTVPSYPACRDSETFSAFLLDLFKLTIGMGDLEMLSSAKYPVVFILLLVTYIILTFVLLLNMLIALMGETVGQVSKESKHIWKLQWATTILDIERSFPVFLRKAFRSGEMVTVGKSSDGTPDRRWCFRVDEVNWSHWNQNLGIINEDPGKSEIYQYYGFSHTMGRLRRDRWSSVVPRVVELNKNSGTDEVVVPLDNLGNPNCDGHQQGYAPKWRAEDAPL
run.description: Agonist activity at rat TRPV4 stably transfected in HEK293 cells assessed as increase in calcium influx in presence of ionomycin by Fluo-4-AM dye based spectrofluorimetric method
Assay type: cell-based
Exercise: for every item that follows, state its recorded EC50.

{"molecule": "C=C(C)[C@@H]1CCC(C)=C[C@H]1c1c(O)cc(CCCCC)c(Cc2c(CCCCC)cc(O)c([C@@H]3C=C(C)CC[C@H]3C(=C)C)c2O)c1O", "observed.value": "6.2 µM"}

Shifting focus to the molecule that follows.
Data request, read-out EC50, for C=C(C)[C@@H]1CCC(C)=C[C@H]1c1c(O)cc(CCCCC)cc1O [CANNABIDIOL] 0.9 µM

====

system.under.test: UniProtKB Q9ERZ8
run.description: Antagonist activity at rat TRPV4 expressed in HEK293 cells assessed as inhibition of GSK1016790A-induced Ca2+ response preincubated for 5 mins followed by GSK1016790A addition by Fluo-4AM dye based fluorescence assay
measured.attribute: IC50 (µM)
One number for each entry, in µM.

Data request, read-out IC50, for `C=C(C)[C@@H]1CCC(C)=C[C@H]1c1c(O)cc(CCCCC)cc1O` 5.9

====

Exercise: for every item that follows, state its recorded pIC50.
system.under.test: Transient receptor potential cation channel subfamily M member 8 (Rattus norvegicus)
Sequence (Q8R455 whole entry): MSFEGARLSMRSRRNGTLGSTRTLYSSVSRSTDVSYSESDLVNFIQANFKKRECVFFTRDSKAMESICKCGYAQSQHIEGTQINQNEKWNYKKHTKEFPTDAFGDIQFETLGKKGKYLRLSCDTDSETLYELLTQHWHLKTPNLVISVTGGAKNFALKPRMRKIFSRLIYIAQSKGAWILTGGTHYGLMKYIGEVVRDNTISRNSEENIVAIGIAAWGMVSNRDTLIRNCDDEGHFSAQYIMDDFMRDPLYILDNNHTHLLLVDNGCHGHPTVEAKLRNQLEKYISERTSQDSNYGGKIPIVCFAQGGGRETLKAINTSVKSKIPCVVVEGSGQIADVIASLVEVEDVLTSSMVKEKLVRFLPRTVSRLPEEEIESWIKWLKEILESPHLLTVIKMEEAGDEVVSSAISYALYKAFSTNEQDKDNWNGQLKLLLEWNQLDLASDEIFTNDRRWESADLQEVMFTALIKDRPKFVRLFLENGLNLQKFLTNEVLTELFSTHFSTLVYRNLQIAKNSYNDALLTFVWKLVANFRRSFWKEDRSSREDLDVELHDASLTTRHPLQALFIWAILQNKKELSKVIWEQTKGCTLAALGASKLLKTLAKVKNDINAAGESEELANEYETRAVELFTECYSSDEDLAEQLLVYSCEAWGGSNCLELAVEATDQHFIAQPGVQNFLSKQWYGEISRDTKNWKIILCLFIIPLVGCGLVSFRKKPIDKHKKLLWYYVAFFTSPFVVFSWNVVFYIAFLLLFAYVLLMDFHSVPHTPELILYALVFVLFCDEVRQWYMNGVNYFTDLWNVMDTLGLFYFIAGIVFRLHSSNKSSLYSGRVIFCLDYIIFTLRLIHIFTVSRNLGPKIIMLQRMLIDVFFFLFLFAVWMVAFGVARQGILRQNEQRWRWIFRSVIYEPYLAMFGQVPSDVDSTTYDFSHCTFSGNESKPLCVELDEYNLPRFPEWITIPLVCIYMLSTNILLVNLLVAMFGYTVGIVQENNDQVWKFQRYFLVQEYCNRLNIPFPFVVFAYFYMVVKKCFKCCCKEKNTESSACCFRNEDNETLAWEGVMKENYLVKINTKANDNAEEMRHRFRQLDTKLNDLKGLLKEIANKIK
run.description: Antagonist activity at rat TRPM8 expressed in HEK293 cells assessed as inhibition of icilin-induced Ca2+ response preincubated for 5 mins followed by icilin addition by Fluo-4AM dye based fluorescence assay
One number for each entry, as −log10 of the molar value.

{"test.smiles": "C=C(C)[C@@H]1CCC(C)=C[C@H]1c1c(O)cc(CCCCC)c(Cc2c(CCCCC)cc(O)c([C@@H]3C=C(C)CC[C@H]3C(=C)C)c2O)c1O", "observed.value": 5.41}

Shifting focus to the compound that follows.
Data request, read-out pIC50, for `C=C(C)[C@@H]1CCC(C)=C[C@H]1c1c(O)cc(CCCCC)cc1O` 5.55

====

system.under.test: Heat sensitive channel TRPV3 (Rattus norvegicus)
Sequence (Q4QYD9 whole entry): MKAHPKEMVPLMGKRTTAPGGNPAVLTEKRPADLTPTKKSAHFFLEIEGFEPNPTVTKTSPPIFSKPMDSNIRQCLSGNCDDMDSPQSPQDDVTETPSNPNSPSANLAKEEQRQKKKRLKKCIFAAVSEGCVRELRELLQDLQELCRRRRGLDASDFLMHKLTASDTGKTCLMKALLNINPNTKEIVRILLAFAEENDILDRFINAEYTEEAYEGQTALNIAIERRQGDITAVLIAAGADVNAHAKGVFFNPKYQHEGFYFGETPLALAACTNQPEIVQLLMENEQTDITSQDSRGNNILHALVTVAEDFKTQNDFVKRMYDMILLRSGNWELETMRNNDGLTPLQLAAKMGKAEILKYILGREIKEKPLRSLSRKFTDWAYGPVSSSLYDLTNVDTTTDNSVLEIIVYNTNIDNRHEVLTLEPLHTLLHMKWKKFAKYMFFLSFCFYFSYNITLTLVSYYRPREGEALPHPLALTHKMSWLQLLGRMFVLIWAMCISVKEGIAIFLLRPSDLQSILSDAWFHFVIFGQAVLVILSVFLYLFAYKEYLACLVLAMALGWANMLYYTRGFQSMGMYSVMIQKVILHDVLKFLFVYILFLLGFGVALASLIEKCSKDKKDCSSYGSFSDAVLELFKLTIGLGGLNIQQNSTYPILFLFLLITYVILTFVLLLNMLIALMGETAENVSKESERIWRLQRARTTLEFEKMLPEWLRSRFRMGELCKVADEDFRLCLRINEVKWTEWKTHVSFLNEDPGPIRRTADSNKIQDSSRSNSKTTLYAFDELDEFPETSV
run.description: Agonist activity at rat TRPV3 stably transfected in HEK293 cells assessed as increase in calcium influx in presence of ionomycin by Fluo-4-AM dye based spectrofluorimetric method
Type: cell-based
Exercise: for every item that follows, state its recorded EC50.
One number for each entry, in nM.

{"compound": "C=C(C)[C@@H]1CCC(C)=C[C@H]1c1c(O)cc(CCCCC)cc1O [CANNABIDIOL]", "system.under.test": "Heat sensitive channel TRPV3 (Rattus norvegicus)", "EC50, nM": 510}

Shifting focus to the compound that follows.
Data request, read-out EC50, for `C=C(C)[C@@H]1CCC(C)=C[C@H]1c1c(O)cc(CCCCC)c(Cc2c(CCCCC)cc(O)c([C@@H]3C=C(C)CC[C@H]3C(=C)C)c2O)c1O` 4600

====

system.under.test: Transient receptor potential cation channel subfamily V member 1 (Homo sapiens)
run.description: Antagonist activity at human TRPV1 expressed in HEK293 cells assessed as inhibition of capsaicin-induced Ca2+ response preincubated for 5 mins followed by capsaicin addition by Fluo-4AM dye based fluorescence assay
measured.attribute: pIC50
Give bare numbers, as −log10 of the molar value.

Data request, read-out pIC50, for C=C(C)[C@@H]1CCC(C)=C[C@H]1c1c(O)cc(CCCCC)cc1O [CANNABIDIOL] 5.43

====

system.under.test: Heat sensitive channel TRPV3 (Rattus norvegicus)
Sequence (Q4QYD9 whole entry): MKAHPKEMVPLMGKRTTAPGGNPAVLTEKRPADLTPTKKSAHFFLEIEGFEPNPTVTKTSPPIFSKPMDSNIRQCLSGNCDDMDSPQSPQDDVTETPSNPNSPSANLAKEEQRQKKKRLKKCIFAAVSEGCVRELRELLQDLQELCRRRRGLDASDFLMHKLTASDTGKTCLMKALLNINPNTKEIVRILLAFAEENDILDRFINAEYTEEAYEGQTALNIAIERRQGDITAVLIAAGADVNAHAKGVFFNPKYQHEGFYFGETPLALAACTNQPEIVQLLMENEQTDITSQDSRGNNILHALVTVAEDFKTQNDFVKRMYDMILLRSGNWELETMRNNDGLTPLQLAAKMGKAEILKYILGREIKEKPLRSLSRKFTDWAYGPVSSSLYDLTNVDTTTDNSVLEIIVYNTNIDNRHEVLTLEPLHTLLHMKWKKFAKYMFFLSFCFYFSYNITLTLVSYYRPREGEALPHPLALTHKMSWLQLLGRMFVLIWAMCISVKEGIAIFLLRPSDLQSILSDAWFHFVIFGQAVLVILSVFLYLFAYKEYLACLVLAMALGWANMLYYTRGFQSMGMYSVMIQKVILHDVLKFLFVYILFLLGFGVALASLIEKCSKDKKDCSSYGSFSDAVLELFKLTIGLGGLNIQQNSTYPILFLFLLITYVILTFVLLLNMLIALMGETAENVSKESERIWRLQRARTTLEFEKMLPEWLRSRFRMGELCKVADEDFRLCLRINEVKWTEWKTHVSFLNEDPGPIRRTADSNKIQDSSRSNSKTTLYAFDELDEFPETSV
run.description: Antagonist activity at rat TRPV3 expressed in HEK293 cells assessed as inhibition of thymol-induced Ca2+ response preincubated for 5 mins followed by thymol addition by Fluo-4AM dye based fluorescence assay
measured.attribute: IC50
Answer with the number, then the unit.

{"test.smiles": "C=C(C)[C@@H]1CCC(C)=C[C@H]1c1c(O)cc(CCCCC)cc1O", "system.under.test": "Heat sensitive channel TRPV3 (Rattus norvegicus)", "observed.value": "0.75 µM"}

Shifting focus to the compound that follows.
Data request, read-out IC50, for `C=C(C)[C@@H]1CCC(C)=C[C@H]1c1c(O)cc(CCCCC)c(Cc2c(CCCCC)cc(O)c([C@@H]3C=C(C)CC[C@H]3C(=C)C)c2O)c1O` 11.8 µM

====

system.under.test: Transient receptor potential cation channel subfamily V member 1 (Homo sapiens, UniProt Q8NER1)
Sequence (Q8NER1 whole entry): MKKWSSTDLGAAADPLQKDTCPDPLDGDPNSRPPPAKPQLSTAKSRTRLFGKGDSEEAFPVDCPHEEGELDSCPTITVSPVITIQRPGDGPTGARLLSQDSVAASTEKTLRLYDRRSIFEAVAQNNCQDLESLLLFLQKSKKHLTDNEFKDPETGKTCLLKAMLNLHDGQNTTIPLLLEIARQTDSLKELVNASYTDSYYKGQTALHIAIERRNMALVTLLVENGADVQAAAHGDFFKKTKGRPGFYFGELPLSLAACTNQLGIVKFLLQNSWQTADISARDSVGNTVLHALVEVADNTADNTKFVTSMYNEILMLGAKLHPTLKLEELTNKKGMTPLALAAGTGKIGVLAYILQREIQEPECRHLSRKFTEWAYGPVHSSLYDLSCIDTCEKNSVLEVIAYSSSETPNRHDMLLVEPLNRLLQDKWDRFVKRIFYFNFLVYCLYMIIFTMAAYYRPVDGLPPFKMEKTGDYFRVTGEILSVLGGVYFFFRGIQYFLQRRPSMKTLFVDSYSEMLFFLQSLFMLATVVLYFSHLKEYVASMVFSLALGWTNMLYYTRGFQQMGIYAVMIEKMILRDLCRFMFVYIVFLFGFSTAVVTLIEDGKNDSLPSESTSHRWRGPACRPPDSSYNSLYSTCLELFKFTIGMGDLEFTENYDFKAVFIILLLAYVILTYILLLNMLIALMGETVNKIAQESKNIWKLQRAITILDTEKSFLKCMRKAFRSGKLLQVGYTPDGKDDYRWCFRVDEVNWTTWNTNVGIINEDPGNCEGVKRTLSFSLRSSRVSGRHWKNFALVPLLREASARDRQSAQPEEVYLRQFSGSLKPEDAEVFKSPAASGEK
run.description: Agonist activity at human TRPV1 stably transfected in HEK293 cells assessed as increase in calcium influx in presence of ionomycin by Fluo-4-AM dye based spectrofluorimetric method
measured.attribute: EC50

{"test.smiles": "C=C(C)[C@@H]1CCC(C)=C[C@H]1c1c(O)cc(CCCCC)cc1O", "EC50": "4.1 µM"}

Shifting focus to the compound that follows.
Data request, read-out EC50, for `C=C(C)[C@@H]1CCC(C)=C[C@H]1c1c(O)cc(CCCCC)c(Cc2c(CCCCC)cc(O)c([C@@H]3C=C(C)CC[C@H]3C(=C)C)c2O)c1O` 4.5 µM
